Sourced from patent US11180770B2

# Test system: HPPD polypeptides
# experiment_summary: coupled HPPD activity assay: turnover and residual turnover in crude extracts
# Type: biochemical, Pseudomonas fluorescens
# test_settings: presence of 100 μM Cmpd. 1; high substrate concentration; changes in absorbance (OD) at 320 nm
Items are presented alongside their recorded Residual turnover.
Enter a number only.

42 (protein, mutant HPPD polypeptide) MADLYENPMGLMGFEFIEFASPTPGTLEPIFEIMGFTKVATHRSKNVHLYRQGEINLILNNEPNSIASYFAAEHGPSVCGMAFRVKDSQKAYNRALELGAQPIHIDTGPMELNLPAIKGIGGAPLYLIDRFGEGSSIYDIDFVYLEGVERNPVGAGLKVIDHLTHNVYRGRMVYWANFYEKLFNFREARYFDIKGEYTGLTSKAMSAPDGMIRIPLNEESSKGAGQIEEFLMQFNGEGIQHVAFLTDDLVKTWDALKKIGMRFMTAPSDEYYEMLEGRLPDHGEPVDQLQARGILLDGSSVEGDKRLLLQIFSETLMGPVFFEFIQRKGDDGFGPHSFKVLFESVERDQVRRGVLTAD ... 0.111

Consider the molecule shown here: 51 (protein, mutant HPPD polypeptide) MADLYENPMGLMGFEFIEFASPTPGTLEPIFEIMGFTKVATHRSKNVHLYRQGEINLILNNEPNSIASYFAAEHGPSVCGMAFRVKDSQKAYNRALELGAQPIHIDTGPMELNLPAIKGIGGAPLYLIDRFGEGSSIYDIDFVYLEGVERNPVGAGLKVIDHLTHNVYRGRMVYWANFYEKLFNFREARYFDIKGEYTGLTSKAMSAPDGMIRIPLNEESSKGAGQIEEFLMQFNGEGIQHVAFLTDDLVKTWDALKKIGMRFMTAPADNYYEMLEGRLPDHGEPVDQLQARGILLDGSSVEGDKRLLLQIFSETLMGPVFFEFIQRKGDDGFGPDSFKVLFESKERDQVRRGVLTAD What is its recorded Residual turnover?
0.074
